B1: library; a variant is named by its letters at N, in order (parent)
chain: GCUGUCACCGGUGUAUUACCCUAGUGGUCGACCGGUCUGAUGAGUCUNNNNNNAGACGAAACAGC

Variants of: B1
Measurement protocol: normalized RNA/DNA level without ligand (relative to sTRSVctl = 100) (log10 (% of sTRSVctl)); ligand: hypoxanthine (xanthine aptamer); higher = less ribozyme self-cleavage, higher mRNA level
Assay context: HEK293T, reporter: mCherry (pCS4076), ligand present: no
Metric name: normalized RNA/DNA level without ligand (log10)
Answer using only a numeral; do not append any unit.

// GGUCCG : normalized RNA/DNA level without ligand (log10) value = 1.83

// UGUACC : normalized RNA/DNA level without ligand (log10) value = 1.92

// AAAGGG : normalized RNA/DNA level without ligand (log10) value = 1.32

// AAGUGC : normalized RNA/DNA level without ligand (log10) value = 1.53

// CGACUU : normalized RNA/DNA level without ligand (log10) value = 1.9

// CUAUUC : normalized RNA/DNA level without ligand (log10) value = 1.84

// ACGGUA : normalized RNA/DNA level without ligand (log10) value = 1.57

// AACCGA : normalized RNA/DNA level without ligand (log10) value = 1.72

// CUAAGG : normalized RNA/DNA level without ligand (log10) value = 1.75

// GGCGUA : normalized RNA/DNA level without ligand (log10) value = 1.86

// ACACGU : normalized RNA/DNA level without ligand (log10) value = 1.82

// UAUGUA : normalized RNA/DNA level without ligand (log10) value = 1.84

// AAUGUC : normalized RNA/DNA level without ligand (log10) value = 1.92

// GCGCGU : normalized RNA/DNA level without ligand (log10) value = 1.58

// GGCCAA : normalized RNA/DNA level without ligand (log10) value = 1.87

// CCCCUU : normalized RNA/DNA level without ligand (log10) value = 1.91

// UCGAAG : normalized RNA/DNA level without ligand (log10) value = 1.42

// UCAUCG : normalized RNA/DNA level without ligand (log10) value = 1.83

// UCUGUA : normalized RNA/DNA level without ligand (log10) value = 1.83

// ACCCAG : normalized RNA/DNA level without ligand (log10) value = 1.48

// GGUGUC : normalized RNA/DNA level without ligand (log10) value = 1.85

// AGCGUU : normalized RNA/DNA level without ligand (log10) value = 1.8

// UUGAUG : normalized RNA/DNA level without ligand (log10) value = 1.8

// UAAGUC : normalized RNA/DNA level without ligand (log10) value = 1.93

// UCCUAA : normalized RNA/DNA level without ligand (log10) value = 1.81

// GCAGGU : normalized RNA/DNA level without ligand (log10) value = 1.73

// UUAUCG : normalized RNA/DNA level without ligand (log10) value = 1.78

// ACUGGU : normalized RNA/DNA level without ligand (log10) value = 1.65

// AAUCUU : normalized RNA/DNA level without ligand (log10) value = 1.91

// UAGCUA : normalized RNA/DNA level without ligand (log10) value = 1.88

// GGUUAG : normalized RNA/DNA level without ligand (log10) value = 1.38

// UCGCCA : normalized RNA/DNA level without ligand (log10) value = 1.81

// CCUACA : normalized RNA/DNA level without ligand (log10) value = 1.9

// ACUGAG : normalized RNA/DNA level without ligand (log10) value = 1.37

// AUCUUG : normalized RNA/DNA level without ligand (log10) value = 1.59

// AAGGCU : normalized RNA/DNA level without ligand (log10) value = 1.83

// UAGGAG : normalized RNA/DNA level without ligand (log10) value = 1.41

// GCCGUC : normalized RNA/DNA level without ligand (log10) value = 1.91

// AGUGUA : normalized RNA/DNA level without ligand (log10) value = 1.71

// UAGACU : normalized RNA/DNA level without ligand (log10) value = 1.83

// CUCGAU : normalized RNA/DNA level without ligand (log10) value = 1.83

// CACCGC : normalized RNA/DNA level without ligand (log10) value = 1.91

// UUCGAG : normalized RNA/DNA level without ligand (log10) value = 1.54

// GAGUUU : normalized RNA/DNA level without ligand (log10) value = 1.83

// GGCAGA : normalized RNA/DNA level without ligand (log10) value = 1.51

// GAUAUC : normalized RNA/DNA level without ligand (log10) value = 1.91

// GCUAGC : normalized RNA/DNA level without ligand (log10) value = 1.79

// UCAUAU : normalized RNA/DNA level without ligand (log10) value = 1.77

// AUUCAU : normalized RNA/DNA level without ligand (log10) value = 1.8

// GGAACG : normalized RNA/DNA level without ligand (log10) value = 1.5

// UUACCC : normalized RNA/DNA level without ligand (log10) value = 1.93

// ACCGUU : normalized RNA/DNA level without ligand (log10) value = 1.83

// UAGUUU : normalized RNA/DNA level without ligand (log10) value = 1.86

// CGAAUG : normalized RNA/DNA level without ligand (log10) value = 1.88

// CUCAAU : normalized RNA/DNA level without ligand (log10) value = 1.79

// GCUGCC : normalized RNA/DNA level without ligand (log10) value = 1.83

// UAAUAC : normalized RNA/DNA level without ligand (log10) value = 1.79

// UAGCUC : normalized RNA/DNA level without ligand (log10) value = 2.03

// CUCCAC : normalized RNA/DNA level without ligand (log10) value = 1.92

// GCGCAA : normalized RNA/DNA level without ligand (log10) value = 1.52

// CGGUCC : normalized RNA/DNA level without ligand (log10) value = 1.88

// GUACUU : normalized RNA/DNA level without ligand (log10) value = 1.89

// ACAGGC : normalized RNA/DNA level without ligand (log10) value = 1.72

// CAGGGA : normalized RNA/DNA level without ligand (log10) value = 1.78

// GAAUUC : normalized RNA/DNA level without ligand (log10) value = 1.9

// AUUCCG : normalized RNA/DNA level without ligand (log10) value = 1.59

// AGGAGA : normalized RNA/DNA level without ligand (log10) value = 1.28

// UUUUCA : normalized RNA/DNA level without ligand (log10) value = 1.9

// GACACU : normalized RNA/DNA level without ligand (log10) value = 1.91

// AUACCC : normalized RNA/DNA level without ligand (log10) value = 1.89

// CCCCCG : normalized RNA/DNA level without ligand (log10) value = 1.93

// UCGCAG : normalized RNA/DNA level without ligand (log10) value = 1.65

// UGCGGC : normalized RNA/DNA level without ligand (log10) value = 1.9

// AGUUUA : normalized RNA/DNA level without ligand (log10) value = 1.79

// CCAGUC : normalized RNA/DNA level without ligand (log10) value = 1.97

// CAAUCA : normalized RNA/DNA level without ligand (log10) value = 1.77

// UGUUCG : normalized RNA/DNA level without ligand (log10) value = 1.84

// CAUCUU : normalized RNA/DNA level without ligand (log10) value = 1.93

// UACUUC : normalized RNA/DNA level without ligand (log10) value = 2

// UUGGGU : normalized RNA/DNA level without ligand (log10) value = 1.82

// UUCGGA : normalized RNA/DNA level without ligand (log10) value = 1.75

// ACUUCA : normalized RNA/DNA level without ligand (log10) value = 1.92
